# credit: ChEMBL document CHEMBL1201862

Test system: SK-MEL-28
Test: NCI tumour cell line growth inhibition, 48 h
Activity calls are given as the source filed them. Cut-off read from the data, not from the text of the source: active = GI50 up to about 1.1 µM and inactive = higher.
Measured GI50 accompanies every entry in the list below.

CN1CCN(c2ccc3nc(C4=C(O)C(=O)[C@@H]5C(=C4O)N=C(CO)N5C)[nH]c3n2)CC1
> 100 µM (inactive)
[O-][n+]1c(-c2ccccc2)c2nc3ccccc3nc2c2ccccc21
> 100 µM (inactive)

Challenge: Quick check: GI50 of COC(=O)[C@@H](NC(=O)N(CCC#N)CCCN(C(=O)N[C@H](Cc1ccccc1)C(=O)OC)c1ccccc1)C(C)C ?
Response given: 34.3 µM (inactive)

Challenge: What about this molecule? Nc1ncnc2c1ncn2C1OC(CSC(F)(F)F)C(O)C1O (stereo unspecified)
Response given: > 100 µM (inactive)

Challenge: What about this molecule? O=CNNC(=O)Nc1cccc2ccccc12
Response given: > 100 µM (inactive)

Challenge: What about this molecule? Nc1nc2ccc3ccccc3c2[nH]1
Response given: > 10 µM (inactive)

Challenge: What about this molecule? COc1ccc(/C=C2\CCC/C(=C\c3ccc(O)c(CN4CCCCC4)c3)C2=O)cc1
Response given: 11.3 µM (inactive)

====

Measured GI50 accompanies every entry in the list below.
Tested on: SW-620
Experiment: NCI tumour cell line growth inhibition, 48 h
Calls of active or inactive are those of the source. No stated cut-off is given here; in the data, active = GI50 up to about 1.1 µM and inactive = higher.

Challenge: Quick check: GI50 of CCN(CC)CCn1c2cc3c(cc2c(=O)c2cccnc21)OCO3 ?
Response given: 4.26 µM (inactive)

Challenge: What about this compound? CCCCCCCC(CC(=O)NC(CO)C(=O)NC(CO)CC(C)C)OC(=O)CC(CCCCCCC)OC(=O)CC(CCCCCCC)OC1OC(C)C(O)C(OC2OC(C)C(OC(C)=O)C(O)C2O)C1O (centres undefined)
Response given: 10.7 µM (inactive)

Challenge: What about this compound? C=C1C(=O)O[C@@H]2O[C@@]3(C)CC[C@H]4[C@H](C)CC[C@@H]1[C@@]24O3 [DEOXYARTEMISITENE]
Response given: 15.5 µM (inactive)

Challenge: What about this compound? Cc1cc(O)ccc1C1(c2ccc(F)cc2)OC(=O)c2ccccc21 (centres undefined)
Response given: 12.9 µM (inactive)

====

Measured GI50 accompanies every entry in the list below.
Test system: 786-0
Assay: NCI tumour cell line growth inhibition, 48 h
Active and inactive are the calls of the source. Rule as the data show it: active = GI50 up to about 1.1 µM and inactive = higher.

CCCN1CN(C(C(=O)N[C@@H]2C(=O)N3C2SC(C)(C)C3C(=O)O)c2ccc(O)cc2)CSC1=S (stereo partly specified)
> 100 µM (inactive)
COC(=O)C1=C(O)CCCC(C2CCCCC(=O)C2C(=O)OC)=C1 (stereo unspecified)
37.8 µM (inactive)

Challenge: Quick check: GI50 of N/C(S)=N/N=C/c1cc(CN2CCOCC2)c(N)cn1 ?
Response given: 65.2 µM (inactive)

Challenge: What about this compound? Cc1cccc(Nc2cnc(N)nc2N)c1
Response given: > 100 µM (inactive)

Challenge: What about this compound? COC1=C(N=[N+]=[N-])C(=O)c2ncccc2C1=O
Response given: 8.79 µM (inactive)

Challenge: What about this compound? Nc1ncnc2c1N=CN(Oc1ccccc1)N2
Response given: > 100 µM (inactive)

====

Test system: MOLT-4
Experiment: NCI tumour cell line growth inhibition, 48 h
Calls of active or inactive are those of the source. Rule as the data show it: active = GI50 up to about 1.1 µM and inactive = higher.
Just give me one of these, please: 1.0 = active, 0.0 = inactive

Challenge: Test call for this compound, please: COc1ccc(/N=C\c2ccc(N(CCC#N)S(=O)(=O)c3ccccc3)cc2C)cc1
Response given: 0.0

Challenge: What about this compound? COc1ccc(CN2CC(C)(C)C2=O)c(OC)c1
Response given: 0.0

Challenge: What about this compound? O=C(O)c1ccc(O)c(/N=N/c2cc(S(=O)(=O)O)c3ccccc3c2O)c1
Response given: 0.0

Challenge: What about this compound? COc1cc(/C=N/N=C(\N)NO)cc(Cl)c1O
Response given: 0.0

====

Tested on: CAKI-1
Test: NCI tumour cell line growth inhibition, 48 h
Calls of active or inactive are those of the source. Cut-off read from the data, not from the text of the source: active = GI50 up to about 1.1 µM and inactive = higher.
Measured GI50 accompanies every entry in the list below.

Check out these entries, answers already filled in.
Nc1ncnc2c1ncn2C1OC(CSC(F)(F)F)C(O)C1O (stereo not drawn)
> 100 µM (inactive)
Nc1ccc(C(=O)NN2C(=O)C(Cl)C2c2cccc(O)c2)cc1 (stereo not drawn)
20.4 µM (inactive)

# next molecule below
Challenge: Quick check: GI50 of Cc1cc([N+](=O)[O-])ccc1NC(=O)C(=O)C(C(=O)c1ccccc1-c1ccccc1)C1OC(=O)c2ccccc21 (stereo not drawn) ?
Response given: 23.8 µM (inactive)

====

Test system: CCRF-CEM
Experiment: NCI tumour cell line growth inhibition, 48 h
Activity calls are given as the source filed them. Cut-off read from the data, not from the text of the source: active = GI50 up to about 1.1 µM and inactive = higher.
Just give me one of these, please: 1.0 (active), 0.0 (inactive)

C/C(=N\NS(=O)(=O)c1ccccc1)c1ccc(Cl)c(Cl)c1
0.0
COC(=O)[C@@H](NC(=O)N(CCC#N)CCCN(C(=O)N[C@H](Cc1ccccc1)C(=O)OC)c1ccccc1)C(C)C
0.0
COc1cc(C(=O)N(C(=S)OC23CC4CC(CC(C4)C2)C3)c2ccccc2)cc(OC)c1OC
0.0
NC(=O)CN1CC(C2=C(O)CN(CC(N)=O)C2=O)=CC1=O
0.0
Cc1cc2c(cc1-c1cc3c(cc1C)C(C(C)C)=C(O)C(=O)/C3=C\Nc1nc(-c3ccccc3)cs1)/C(=C/Nc1nc(-c3ccccc3)cs1)C(=O)C(O)=C2C(C)C
0.0
COc1ccc2c(c1)[n+]([O-])c(-c1ccc(OC)c(OC)c1)c(N)[n+]2[O-]
0.0
O=P1(Cc2ccccc2)c2ccccc2-c2ccccc21
0.0
COC(=O)C(=O)C(C(=O)C(=O)Nc1ccc(F)cc1)c1nc2ccc([N+](=O)[O-])cc2nc1O (stereo unspecified)
0.0
C[C@]12CC[C@@H]3c4ccc(O)cc4CC[C@H]3[C@@H]1CC[C@@H]2OC(=O)CCc1ccccc1
0.0
O=C(CC1(O)C(=O)Nc2ccc([N+](=O)[O-])cc21)c1ccncc1 (stereo unspecified)
0.0

Challenge: Test call for this compound, please: COc1ccc2cc(CNCCCN3CCN(CCCNCc4ccc5cc(OC)ccc5c4)CC3)ccc2c1
Response given: 1.0

Challenge: What about this compound? CC(=O)O[C@H]1C(=O)N(c2cc3c4ccccc4ccc3c3ccccc23)[C@@H]1c1ccccc1
Response given: 0.0

Challenge: What about this compound? CSCCC(NCc1c(O)ccc2ccc(=O)oc12)C(=O)O (stereo unspecified)
Response given: 0.0

Challenge: What about this compound? O=CNNC(=O)Nc1cccc2ccccc12
Response given: 0.0

Challenge: What about this compound? O=C1NC(=O)C(C(CC(=O)c2ccc([N+](=O)[O-])cc2)c2ccccc2)C(=O)N1 (stereo unspecified)
Response given: 0.0

====

Test system: T47D
Test: NCI tumour cell line growth inhibition, 48 h
Calls of active or inactive are those of the source. Cut-off read from the data, not from the text of the source: active = GI50 up to about 1.1 µM and inactive = higher.
Measured GI50 accompanies every entry in the list below.

Check out these entries, answers already filled in.
O=C(COC(=O)c1ccccc1)c1ccc(Br)cc1
9.06 µM (inactive)
CC[C@@H]1CC[C@@H]2[C@H](CC[C@]3(C)[C@@H](O)CC[C@@H]23)[C@H]1CO
70.5 µM (inactive)

Challenge: Quick check: GI50 of COC(=O)[C@@H](NC(=O)N(CCC#N)CCCN(C(=O)N[C@H](Cc1ccccc1)C(=O)OC)c1ccccc1)C(C)C ?
Response given: 36.8 µM (inactive)

Challenge: What about this compound? O=C(N/N=C\c1cccc2c([N+](=O)[O-])cccc12)Nc1ccccc1
Response given: 6.04 µM (inactive)

Challenge: What about this compound? Cc1cc2c(cc1-c1cc3c(cc1C)C(C(C)C)=C(O)C(=O)/C3=C\Nc1nc(-c3ccccc3)cs1)/C(=C/Nc1nc(-c3ccccc3)cs1)C(=O)C(O)=C2C(C)C
Response given: 31.9 µM (inactive)

Challenge: What about this compound? COc1cc([N+](=O)[O-])cc2c1NC(=O)C2(C)SC (centres undefined)
Response given: 66.8 µM (inactive)

Challenge: What about this compound? O=C(O)c1cc2c(s1)C(=O)c1sccc1C2=O
Response given: 4.97 µM (inactive)

Challenge: What about this compound? c1ccc(Cc2cccc3cc(-c4ccc(-c5ccccc5)cc4)[nH]c23)cc1
Response given: > 100 µM (inactive)

Challenge: What about this compound? CC(=O)OCC1(C)C(O)CCC2(C)C1CCC1CC3CC12CCC3(O)CO (centres undefined)
Response given: > 100 µM (inactive)

====

Test system: DMS-273
Experiment: NCI tumour cell line growth inhibition, 48 h
The source made the active and inactive calls. Cut-off read from the data, not from the text of the source: active = GI50 up to about 1.1 µM and inactive = higher.
Just give me one of these, please: t (active), f (inactive)

COC1OC(COC(C)=O)C(OC(C)=O)C(OC(C)=O)C1NC(=O)N(CCCl)N=O (centres undefined)
f
CCCCCCCCCCCCCC(=O)O[C@H]1CC[C@H](NC(=O)[C@H](OC)[C@H](O)[C@@H](O)[C@H](O)/C=C/C(C)C)C(=O)N(C)C1 [BENGAMIDE B]
t
CCCCNc1nc(C#N)c(N)s1
f
CN(C)CC[N+]1=Nc2cccc3cccc(c23)N1
f
O=C(O)/C=C/c1ccc(O)c(O)c1
f

Okay, next one:
Challenge: Test call for this molecule, please: Nc1nc2sc3ccccc3c(=O)n2n1
Response given: f
